measured_on: SpCas9 (Streptococcus pyogenes serotype M1, UniProt Q99ZW2)
Sequence (Q99ZW2 whole entry): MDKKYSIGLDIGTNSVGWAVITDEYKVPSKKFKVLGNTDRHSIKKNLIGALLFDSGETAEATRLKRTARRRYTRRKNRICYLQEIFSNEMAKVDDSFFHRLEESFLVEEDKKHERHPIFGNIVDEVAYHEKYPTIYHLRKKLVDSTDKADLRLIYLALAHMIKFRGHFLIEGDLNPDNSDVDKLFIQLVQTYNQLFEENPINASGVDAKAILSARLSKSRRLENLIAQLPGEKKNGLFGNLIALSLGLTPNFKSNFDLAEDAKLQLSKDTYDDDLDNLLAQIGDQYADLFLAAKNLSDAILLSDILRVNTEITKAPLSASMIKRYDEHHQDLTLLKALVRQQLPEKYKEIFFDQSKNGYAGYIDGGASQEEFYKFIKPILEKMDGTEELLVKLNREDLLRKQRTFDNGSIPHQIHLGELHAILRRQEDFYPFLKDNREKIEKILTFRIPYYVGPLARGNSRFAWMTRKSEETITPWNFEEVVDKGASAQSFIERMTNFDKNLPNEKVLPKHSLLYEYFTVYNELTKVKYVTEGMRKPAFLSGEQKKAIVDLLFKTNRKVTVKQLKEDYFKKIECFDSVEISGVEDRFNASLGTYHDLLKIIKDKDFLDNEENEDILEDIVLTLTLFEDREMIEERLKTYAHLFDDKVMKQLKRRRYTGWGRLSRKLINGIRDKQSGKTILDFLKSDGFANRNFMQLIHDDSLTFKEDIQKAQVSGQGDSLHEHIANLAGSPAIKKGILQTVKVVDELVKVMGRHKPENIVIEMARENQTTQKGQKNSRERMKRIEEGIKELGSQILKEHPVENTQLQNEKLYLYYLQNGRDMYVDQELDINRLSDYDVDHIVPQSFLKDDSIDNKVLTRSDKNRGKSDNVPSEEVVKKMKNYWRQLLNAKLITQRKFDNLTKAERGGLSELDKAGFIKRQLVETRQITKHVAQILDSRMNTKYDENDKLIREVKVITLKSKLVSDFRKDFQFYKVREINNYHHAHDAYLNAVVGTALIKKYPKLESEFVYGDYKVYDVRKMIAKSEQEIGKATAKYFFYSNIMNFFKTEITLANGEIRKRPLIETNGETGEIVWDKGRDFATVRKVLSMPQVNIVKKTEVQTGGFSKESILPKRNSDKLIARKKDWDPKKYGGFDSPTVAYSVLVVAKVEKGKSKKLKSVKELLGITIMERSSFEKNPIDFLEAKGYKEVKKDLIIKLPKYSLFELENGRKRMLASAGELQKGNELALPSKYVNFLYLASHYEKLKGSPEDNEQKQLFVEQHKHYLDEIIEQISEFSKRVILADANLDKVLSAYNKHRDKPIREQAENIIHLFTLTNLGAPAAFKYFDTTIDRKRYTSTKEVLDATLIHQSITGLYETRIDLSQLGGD
assay: eGFP disruption assay, SpCas9, U2OS.eGFP.PEST cells
Type: cell-based
measurement_context: replicate 2, raw readout
test_readout: SpCas9 eGFP disruption Rep2

compound	quantitative_readout
CCN(Cc1ccccc1)c1ccc(NS(=O)(=O)c2ccc(OC)cc2)cc1C(=O)O	60.198
CN(C)c1ccc(-c2nn3c(-c4ccc5ccccc5n4)nnc3s2)cc1	60.694
CCC(=O)Nc1ccccc1Sc1cc(C)nc2ncnn12	60.623
COc1ccc(S(=O)(=O)CCC(=O)Nc2nc(-c3ccncc3)cs2)cc1	47.796
COc1ccc(-c2nn3c(-c4ccc5ccccc5n4)nnc3s2)cc1OC	59.503
Fc1cccc(-c2nn3c(-c4ccc5ccccc5n4)nnc3s2)c1	60.86
CC(C)CNC(=O)c1ccc(Oc2ccnc(-c3ccc(F)cc3)n2)cc1	73.535
Fc1cccc(-c2nnc3sc(CCCc4ccccc4)nn23)c1	53.633
COCCCNC(=O)CN1CCN(c2ccc(C(=O)O)cc2NC(=O)c2ccccc2Cl)CC1	56.359
Fc1ccc(-c2nn3c(-c4cnccn4)nnc3s2)cc1Br	56.742
CNC(=O)c1sc(=S)n2c1[nH]c(=O)c1cc(Br)ccc12	49.642
Clc1ccccc1OCc1nn2c(-c3ccccn3)nnc2s1	58.659
c1cncc(-c2nnc3sc(Cc4ccc5c(c4)OCCO5)nn23)c1	60.83
Brc1cccc(-c2nn3c(-c4ccccn4)nnc3s2)c1	61.347
Nc1c(C(=O)N2CCCCC2)sc(=S)n1Cc1ccccc1	52.985
CCCN1CCN(c2ccc(C(=O)O)cc2NC(=O)c2ccccc2Cl)CC1	54.937
O=C(O)c1cc(N2CCCC2)ccc1NC(=O)C1CCCC1	60.73
COc1ccc(-c2ccc3ncc4c(c3c2)n(-c2ccc(N3CCNCC3)c(C(F)(F)F)c2)c(=O)n4C)cn1.O=C(O)C=CC(=O)O	0
c1ccc(Cc2nn3c(-c4cccnc4)nnc3s2)cc1	58.807
Cn1nc(-c2ccccc2F)c2cc(C(=O)Oc3ccc4cnccc4c3)sc21	76.066
Cc1ccccc1OCc1nn2c(C(C)C)nnc2s1	61.985
O=C(NCC1CCCO1)c1sc(=S)n2c1[nH]c(=O)c1cc3c(cc12)OCO3 (stereo not shown)	61.595
Cc1nn(-c2ccccc2)c(C)c1CCc1nn2c(-c3cccc(F)c3)nnc2s1	59.045
Cc1nc2ccccc2n1Cc1nnc2sc(-c3cccnc3)nn12	67.01
Cc1ncc(-c2ccnc(Nc3ccc(S(C)(=O)=O)cc3)n2)n1C(C)C	43.815
COc1ccc(-c2cc3c(C)nc(N)nc3n(C3CCC(OCCO)CC3)c2=O)cn1 (stereo not shown)	59.461
Brc1ccc(OCc2nn3c(-c4ccccn4)nnc3s2)cc1	65.458
Cc1nn(-c2ccccc2)c(C)c1CCc1nn2c(-c3ccncc3)nnc2s1	59.923
NC(=O)c1sc(=S)n2c1[nH]c(=O)c1ccc(Cl)cc12	56.626
CN(C)S(=O)(=O)Nc1cnc(N2CCC(CCN3CCCCC3)CC2)c(C(=O)O)c1	53.726
Fc1cccc(-c2nnc3sc(-c4ccc5ccccc5n4)nn23)c1	53.657
Nc1c(C(=O)NCC2CCCO2)sc(=S)n1-c1ccc(Cl)cc1 (stereo not shown)	59.748
Cc1ccc(C(C)NC(=O)c2cccc(Oc3cc(-c4ccccc4)ncn3)c2)cc1 (stereo not shown)	74.913
c1ccc(-c2nnc3sc(-c4cc5ccccc5o4)nn23)nc1	56.828

* * *

// SpCas9 eGFP disruption Rep2 lookup, one value per entry
measured_on: SpCas9 (Streptococcus pyogenes serotype M1)
assay: eGFP disruption assay, SpCas9, U2OS.eGFP.PEST cells
Type: cell-based
measurement_context: replicate 2, raw readout; Cas9 = lower control, Ctrl = upper control

molecule	SpCas9 eGFP disruption Rep2
O=C(NCC1CCCO1)c1ccc(Oc2ccnc(-c3ccc(F)cc3)n2)cc1 (stereo not shown) [Compound L662-0604]	76.48
C=CC1=C(C(=O)O)N2C(=O)[C@@H](NC(=O)C(=NOCC(=O)O)c3csc(N)n3)[C@H]2SC1.O [SAM001246816]	74.015
COc1ccc(Cc2nnc3sc(Cc4ccc(OC)c(OC)c4)nn23)cc1 [Compound D727-0165]	61.783
CCn1c(CCC(=O)O)nc2cc(S(N)(=O)=O)ccc21 [Compound T5380152]	62.745

* * *

Measured Normalized eGFP Disruption Rep 2 of individual entries
measured_on: SaCas9 (Staphylococcus aureus)
Sequence (J7RUA5 whole entry): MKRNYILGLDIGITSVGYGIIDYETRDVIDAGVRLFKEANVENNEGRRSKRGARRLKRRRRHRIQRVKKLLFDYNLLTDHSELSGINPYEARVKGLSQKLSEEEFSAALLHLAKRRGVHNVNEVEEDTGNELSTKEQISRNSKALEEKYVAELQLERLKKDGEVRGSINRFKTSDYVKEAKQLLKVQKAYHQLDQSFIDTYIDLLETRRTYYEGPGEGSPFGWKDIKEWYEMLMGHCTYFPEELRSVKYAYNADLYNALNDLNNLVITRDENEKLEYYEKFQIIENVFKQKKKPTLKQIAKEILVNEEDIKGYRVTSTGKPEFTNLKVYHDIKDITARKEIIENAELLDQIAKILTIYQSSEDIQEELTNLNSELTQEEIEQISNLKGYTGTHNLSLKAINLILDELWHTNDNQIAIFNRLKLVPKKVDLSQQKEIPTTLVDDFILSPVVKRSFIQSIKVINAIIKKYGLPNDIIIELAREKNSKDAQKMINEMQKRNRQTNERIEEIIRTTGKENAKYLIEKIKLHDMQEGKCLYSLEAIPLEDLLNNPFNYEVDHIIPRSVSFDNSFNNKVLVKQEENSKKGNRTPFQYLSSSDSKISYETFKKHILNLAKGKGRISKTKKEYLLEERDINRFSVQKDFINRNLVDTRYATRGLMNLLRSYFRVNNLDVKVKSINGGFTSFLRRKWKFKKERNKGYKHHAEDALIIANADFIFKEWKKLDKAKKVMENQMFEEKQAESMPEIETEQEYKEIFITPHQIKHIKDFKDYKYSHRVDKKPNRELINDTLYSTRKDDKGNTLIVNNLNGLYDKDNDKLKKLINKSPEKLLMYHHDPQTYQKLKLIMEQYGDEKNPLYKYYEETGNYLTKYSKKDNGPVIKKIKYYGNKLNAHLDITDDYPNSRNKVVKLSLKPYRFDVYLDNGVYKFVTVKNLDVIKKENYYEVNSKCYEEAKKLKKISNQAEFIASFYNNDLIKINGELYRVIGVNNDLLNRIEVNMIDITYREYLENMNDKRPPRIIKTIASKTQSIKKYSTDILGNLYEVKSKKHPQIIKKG
assay: eGFP secondary assay, SaCas9
Assay type: cell-based
measurement_context: replicate 2, % eGFP disruption

molecule	Normalized eGFP Disruption Rep 2
Cc1cccc(NC(=O)c2cc3c(=O)n4ccccc4nc3s2)c1	59.481
COc1cccc(N2C(=O)c3cc4ccccc4n3CC2(C)C(=O)NC2CCCCC2)c1 (stereo not shown)	72.361
C=CC1=C(C(=O)O)N2C(=O)[C@@H](NC(=O)C(=NOCC(=O)O)c3csc(N)n3)[C@H]2SC1.O	78.109
Cc1occc1-c1nnc2sc(-c3c[nH]c4ccccc34)nn12	87.278

* * *

measured_on: SpCas9 (Streptococcus pyogenes serotype M1, UniProt Q99ZW2)
assay: eGFP disruption assay, SpCas9, U2OS.eGFP.PEST cells
Format: cell-based
measurement_context: replicate 1
Examples of compounds with documented Z score Rep1 follow.
test_readout: Z score Rep1

compound	measured_on	test_readout	quantitative_readout
Fc1cccc(-c2nn3c(-c4ccc5ccccc5n4)nnc3s2)c1 [D727-0740]	SpCas9 (Streptococcus pyogenes serotype M1, UniProt Q99ZW2)	Z score Rep1	−4.14
c1ccc(Cc2nn3c(-c4cccnc4)nnc3s2)cc1 [Compound D727-0066]	SpCas9 (Streptococcus pyogenes serotype M1, UniProt Q99ZW2)	Z score Rep1	−0.78
Cc1ncc(-c2ccnc(Nc3ccc(S(C)(=O)=O)cc3)n2)n1C(C)C [Compound S2621]	SpCas9 (Streptococcus pyogenes serotype M1, UniProt Q99ZW2)	Z score Rep1	−10.98
O=C(Nc1ccc(F)c(Cl)c1)c1ccc(Oc2ccnc(-c3ccc(F)cc3)n2)cc1 [Compound L662-0654]	SpCas9 (Streptococcus pyogenes serotype M1, UniProt Q99ZW2)	Z score Rep1	−0.84
Cl.Cl.Fc1cc(-c2cccc3ncc(-c4cnn(C5CCNCC5)c4)nc23)cc(F)c1CN1CCOCC1 [Compound S2686]	SpCas9 (Streptococcus pyogenes serotype M1, UniProt Q99ZW2)	Z score Rep1	−4.74
CCc1cccc(-n2nnnc2N2CCN(C(=O)Nc3ccc(C)cc3Cl)CC2)c1 [Compound L378-0331]	SpCas9 (Streptococcus pyogenes serotype M1, UniProt Q99ZW2)	Z score Rep1	−2.70
CN(C)S(=O)(=O)Nc1cnc(N2CCC(CCN3CCCCC3)CC2)c(C(=O)O)c1 [Compound F293-0962]	SpCas9 (Streptococcus pyogenes serotype M1, UniProt Q99ZW2)	Z score Rep1	−1.30
c1ccc(-c2nnc3sc(-c4ccc5c(c4)OCO5)nn23)nc1 [Compound D727-0536]	SpCas9 (Streptococcus pyogenes serotype M1, UniProt Q99ZW2)	Z score Rep1	−1.18
CS(=O)(=O)Nc1cnc(N2CCC(C(N)=O)(N3CCCCC3)CC2)c(C(=O)O)c1 [Compound F293-0183]	SpCas9 (Streptococcus pyogenes serotype M1, UniProt Q99ZW2)	Z score Rep1	−1.40
O=C(O)c1cc(N2CCCC2)ccc1NC(=O)C1CCCC1 [Compound F685-1588]	SpCas9 (Streptococcus pyogenes serotype M1, UniProt Q99ZW2)	Z score Rep1	−2.44
COc1ccc(Cc2nnc3sc(-c4ccccc4OC)nn23)cc1 [Compound D727-0159]	SpCas9 (Streptococcus pyogenes serotype M1, UniProt Q99ZW2)	Z score Rep1	−4.09
CN(C)S(=O)(=O)Nc1ccc(N2CCC(CCN3CCOCC3)CC2)c(C(=O)O)c1 [Compound F294-0900]	SpCas9 (Streptococcus pyogenes serotype M1, UniProt Q99ZW2)	Z score Rep1	−1.40
O=C(NC1CCCCC1)c1cccc(Oc2cc(-c3ccccc3)ncn2)c1 [Compound L663-0999]	SpCas9 (Streptococcus pyogenes serotype M1, UniProt Q99ZW2)	Z score Rep1	0.55
Cn1nc(-c2ccccc2F)c2cc(C(=O)Oc3ccc4cnccc4c3)sc21 [Compound G784-0099]	SpCas9 (Streptococcus pyogenes serotype M1, UniProt Q99ZW2)	Z score Rep1	−3.62
COc1ccc(CCc2nnc3sc(-c4ccncc4)nn23)cc1OC [Compound D727-0712]	SpCas9 (Streptococcus pyogenes serotype M1, UniProt Q99ZW2)	Z score Rep1	−1.13
Cc1ccc(-c2nc(CN3CCCC(C(=O)Nc4cc(C)ccc4O)C3)no2)cc1 (centres unmarked) [Compound J065-2258]	SpCas9 (Streptococcus pyogenes serotype M1, UniProt Q99ZW2)	Z score Rep1	−1.25
O=C(CCS(=O)(=O)c1ccccc1)Nc1nc(-c2ccncc2)cs1 [Compound G786-1264]	SpCas9 (Streptococcus pyogenes serotype M1, UniProt Q99ZW2)	Z score Rep1	3.83
